This section presents compounds with their documented pKi values.
experimentalTarget: Dihydrofolate reductase (Staphylococcus aureus)
methodNotes: Inhibition of Staphylococcus aureus wild type recombinant DHFR by MTS assay
Quick note: pKi means taking -log10 of the concentration in moles per liter.

These recorded examples may help you get a feel for the data.
>>> valueobserved("CCC[C@H]1c2ccccc2C=NN1C(=O)/C=C/c1cc(Cc2cnc(N)nc2N)cc(OC)c1OC")
9.05
>>> valueobserved("COc1ncc([C@H]2c3ccccc3C=NN2C(=O)/C=C/c2cc(Cc3cnc(N)nc3N)cc(OC)c2OC)cn1")
8.46

Turning now to a further record.
Fill in the blank: the reported pKi of CCCC1c2ccccc2C=NN1C(=O)/C=C/c1cc(Cc2cnc(N)nc2N)cc(O)c1OC (stereo not drawn) is ____.
8.55

----------
experimentalTarget: Dihydrofolate reductase (Staphylococcus aureus, UniProt P0A017, F99Y)
methodNotes: Inhibition of Staphylococcus aureus DHFR F98Y mutant by MTS assay
endpointLabel: IC50 (nM)
Give your result in nM as a bare value.

These recorded examples may help you get a feel for the data.
>>> valueobserved("COc1cc(-c2ccccc2)cc([C@@H](C)C#Cc2c(C)nc(N)nc2N)c1")
190
>>> valueobserved("COc1cc([C@H](C)C#Cc2c(C)nc(N)nc2N)ccc1-c1c(C)cccc1C")
190

Turning now to a further record.
Fill in the blank: the reported IC50 of COc1ncc([C@H]2c3ccccc3C=NN2C(=O)/C=C/c2cc(Cc3cnc(N)nc3N)cc(OC)c2OC)cn1 is ____.
65.4

----------
System: Staphylococcus aureus
methodNotes: microbe, parasite or virus in culture
conditionContext: isolate NRS71
This section presents compounds with their documented MIC values.

>>> valueobserved("Cc1onc(-c2ccccc2)c1C(=O)N[C@@H]1C(=O)N2[C@@H]1SC(C)(C)[C@@H]2C(=O)O [OXACILLIN]")
"> 16 µg/mL"

Quick check: MIC on Staphylococcus aureus, item CC[C@H]1OC(=O)[C@H](C)[C@@H](O[C@H]2C[C@@](C)(OC)[C@@H](O)[C@H](C)O2)[C@H](C)[C@@H](O[C@@H]2O[C@H](C)C[C@H](N(C)C)[C@H]2O)[C@](C)(O)C[C@@H](C)C(=O)[C@H](C)[C@@H](O)[C@]1(C)O [ERYTHROMYCIN] ?
> 8 µg/mL

Quick check: MIC on Staphylococcus aureus, item COc1cc(Cc2cnc(N)nc2N)cc(OC)c1OC [TRIMETHOPRIM] ?
2 µg/mL

Quick check: MIC on Staphylococcus aureus, item O=C(O)c1cn(C2CC2)c2cc(N3CCNCC3)c(F)cc2c1=O [CIPROFLOXACIN] ?
> 16 µg/mL

----------
Test system: Staphylococcus aureus
methodNotes: microbe, parasite or virus in culture
conditionContext: isolate NRS71
endpointLabel: MIC

These recorded examples may help you get a feel for the data.
>>> valueobserved("CC(=O)NC[C@H]1CN(c2ccc(N3CCOCC3)c(F)c2)C(=O)O1")
"1 µg/mL"
>>> valueobserved("CC1(C)S[C@@H]2[C@H](NC(=O)Cc3ccccc3)C(=O)N2[C@H]1C(=O)O")
"> 2 µg/mL"
>>> valueobserved("CCC[C@@H]1C[C@@H](C(=O)N[C@@H]([C@H]2O[C@H](SC)[C@H](O)[C@@H](O)[C@H]2O)[C@H](C)Cl)N(C)C1")
"> 4 µg/mL"

Turning now to a further record.
Fill in the blank: the reported MIC of CCCC1c2ccccc2C=NN1C(=O)/C=C/c1cc(Cc2cnc(N)nc2N)cc(O)c1OC (centres undefined) is ____.
≤ 0.0625 µg/mL
